Where do these numbers come from? They come from patent US6887876B2.

target: δ-opioid receptor (Rattus norvegicus, UniProt P33533); experiment: Rat brain δ-opioid receptor binding assay ([3H]DPDPE); conditions: rat forebrain preparation; [3H]DPDPE; 25° C.; read-out: δ-Opioid Receptor Binding (Ki nM)
Sequence (P33533 whole entry): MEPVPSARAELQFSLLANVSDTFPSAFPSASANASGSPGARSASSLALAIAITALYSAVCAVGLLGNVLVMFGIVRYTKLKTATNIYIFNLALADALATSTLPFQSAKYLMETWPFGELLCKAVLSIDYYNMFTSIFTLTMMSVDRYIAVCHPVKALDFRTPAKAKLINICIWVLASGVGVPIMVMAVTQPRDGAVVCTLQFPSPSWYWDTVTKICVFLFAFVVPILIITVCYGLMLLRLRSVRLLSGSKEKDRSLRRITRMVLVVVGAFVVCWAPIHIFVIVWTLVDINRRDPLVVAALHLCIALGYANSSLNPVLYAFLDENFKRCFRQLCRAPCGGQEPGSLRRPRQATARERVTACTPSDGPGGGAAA
reported_property: Ki (nM)

1. CCCN(CCC)C(=O)c1ccc(C(=Nc2ccccc2Cl)N2CCN(CC)CC2)cc1 = 292
2. COCCN1CCN(C(=Nc2ccccc2Cl)c2ccc(C(=O)OC)cc2)CC1 = 299
3. COC(=O)c1ccc(C(=Nc2ccccc2Cl)N2CCN(Cc3ccccc3)CC2)cc1 = 2010

* * *

Entries and their pKi values follow.
target: δ-opioid receptor (Rattus norvegicus, UniProt P33533); experiment: Rat brain δ-opioid receptor binding assay ([3H]DPDPE)
pKi: −log10 of the molar value.
reported_property: pKi

1. CCN(CC)C(=O)c1ccc(C(=Nc2ccccc2Cl)N2CCCN(CCc3ccccc3)CC2)cc1 [Compound 57] = 7.53
2. CCN(CC)C(=O)c1ccc(C(=Nc2ccccc2)N2CCCN(CCc3ccccc3)CC2)cc1 [Compound 56] = 6.40
3. CCN1CCN(C(=Nc2cccc(Cl)c2)c2ccc(C(=O)N(CC)CC)cc2)CC1 [Compound 3] = 7.20
4. CCN1CCN(C(=Nc2ccccc2Cl)c2ccc(C(=O)N(CC)CC)cc2)CC1 [Compound 6] = 7.04
